Measured Ki values are reported for all entries that follow.
- testSystem: 5-HT3 (Homo sapiens)
- testSummary: Compound affinity for the human 5-HT3 receptor (Assay B), SPA radioligand binding with [9-methyl-3H]BRL-43694
- Set-up: purchased Perkin Elmer
- experimentalContext: Assay B (method B unless otherwise annotated); read-out: 5-HT3 Ki
Structures can show the parent of a compound that is named as a salt.
valueKind: Ki

# molecule, testSystem, valueReported
rows = [
    ("Nc1nc2c(C(=O)NC3CN4CCC3CC4)ccc(F)c2o1 (stereo not shown) [Example 112, Hydrochloride]", "5-HT3 (Homo sapiens)", "33.3 nM"),
    ("CC1CN(C(=O)N2CCCC2)CC(C)N1c1nc2c(C(=O)NC3CC4CCCC(C3)N4)cccc2o1 (stereo not shown) [Example 146, hydrochloride]", "5-HT3 (Homo sapiens)", "32.2 nM"),
    ("CC(C)[C@H]1COCCN1c1nc2c(C(=O)NC3CC4CCCC(C3)N4C)cccc2o1 (stereo partly shown) [Example 48, Hydrochloride]", "5-HT3 (Homo sapiens)", "6 nM"),
    ("CN1[C@@H]2CCC[C@H]1C[C@@H](NC(=O)c1cccc3oc(N4CCC(=O)CC4)nc13)C2 [Example 92, Hydrochloride]", "5-HT3 (Homo sapiens)", "21.2 nM"),
    ("C[C@H]1CN(C(=O)c2ccccc2)C[C@H](C)N1c1nc2c(C(=O)NC3CC4CCCC(C3)N4C)cccc2o1 (stereo partly shown) [Example 117, Hydrochloride]", "5-HT3 (Homo sapiens)", "2.3 nM"),
    ("CN1[C@@H]2CCC[C@H]1C[C@@H](NC(=O)c1c(F)ccc3oc(N)nc13)C2 [Example 128, Hydrochloride]", "5-HT3 (Homo sapiens)", "124 nM"),
    ("CN1C2CCCC1CC(NC(=O)c1cc(Cl)cc3oc(N4CCOC[C@@H]4C(C)(C)C)nc13)C2 (stereo partly shown) [Example 80, Hydrochloride]", "5-HT3 (Homo sapiens)", "29.4 nM"),
]

###

- testSystem: 5-HT3 (Homo sapiens)
- testSummary: Compound affinity for the human 5-HT3 receptor (Assay A), [3H]-GR65630 radioligand binding
- Parameters: host or cells: N1E-155 cell lines (so in the source)
- experimentalContext: annotated (A): Assay A
Where a name gives a salt, the structure may show the parent alone.
valueKind: Ki (nM)

# molecule, testSystem, endpointUnit, valueReported
data = [
    ("CSc1nc2c(C(=O)N[C@@H]3CN4CCC3CC4)cccc2o1 [Example 14, Hydrochloride]", "5-HT3 (Homo sapiens)", "nM", 2.6),
    ("CSc1nc2c(C(=O)N[C@H]3C[C@H]4CCC[C@@H](C3)N4C)cccc2o1 [Example 13, Hydrochloride]", "5-HT3 (Homo sapiens)", "nM", 4.6),
]

###

- testSystem: 5-HT3 (Homo sapiens, UniProt P46098)
- Sequence (P46098 24-478): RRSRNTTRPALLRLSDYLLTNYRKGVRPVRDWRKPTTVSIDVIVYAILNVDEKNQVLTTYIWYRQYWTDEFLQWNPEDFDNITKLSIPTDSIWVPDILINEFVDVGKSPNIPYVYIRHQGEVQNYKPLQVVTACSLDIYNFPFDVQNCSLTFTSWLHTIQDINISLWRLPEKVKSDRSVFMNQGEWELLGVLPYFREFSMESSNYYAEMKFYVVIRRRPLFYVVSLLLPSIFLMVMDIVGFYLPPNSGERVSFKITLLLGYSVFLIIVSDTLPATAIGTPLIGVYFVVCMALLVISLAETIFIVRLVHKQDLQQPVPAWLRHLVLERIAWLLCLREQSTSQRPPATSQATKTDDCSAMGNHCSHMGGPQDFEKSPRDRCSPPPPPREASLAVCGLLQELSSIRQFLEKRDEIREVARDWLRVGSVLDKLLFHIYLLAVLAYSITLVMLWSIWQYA
- testSummary: Compound affinity for the human 5-HT3 receptor (Assay B), SPA radioligand binding with [9-methyl-3H]BRL-43694
- Design: purchased Perkin Elmer
- experimentalContext: Assay B (method B unless otherwise annotated); read-out: 5-HT3 Ki
Structures can show the parent of a compound that is named as a salt.

# compound, Ki
rows = [
    ("C[C@@H]1CN(c2nc3c(C(=O)NC4CC5CCCC(C4)N5C)cccc3o2)C[C@H](C)O1 (stereo partly shown) [Example 17, Hydrochloride]", "54.2 nM"),
    ("C[C@H]1COC[C@H](C)N1c1nc2c(C(=O)N[C@@H]3CN4CCC3CC4)cccc2o1 [Example 90, Hydrochloride]", "6.8 nM"),
    ("CN1[C@@H]2CCC[C@H]1C[C@@H](NC(=O)c1cccc3oc(=S)[nH]c13)C2 [Example 72, Hydrochloride]", "30.8 nM"),
    ("CN1[C@@H]2CCC[C@H]1C[C@@H](NC(=O)c1cccc3oc(N4CCNCC45CCCC5)nc13)C2 [Example 100, Hydrochloride]", "11.4 nM"),
]
